# System: UO-31 renal
# Measurement protocol: NCI tumour cell line growth inhibition, 48 h; in the data active = GI50 below about 0.43 µM; inactive = the rest
Answer with one of the outcomes given here: active, inactive

Prompt line: I'd appreciate the recorded outcome for O=C(O)c1ccc2cccnc2c1O from this test.
Response line: inactive

Prompt line: I'd appreciate the recorded outcome for Cc1ccc(S(=O)(=O)c2ccsc2N)cc1 from this test.
Response line: inactive

Prompt line: I'd appreciate the recorded outcome for CC(=O)O[C@H](C[C@H](C(C)C)N(C)C(=O)[C@@H](NC(=O)[C@H]1CCCCN1C)C(C)(C)C)c1nc(C(=O)N[C@@H](Cc2ccccc2)C[C@H](C)C(=O)O)cs1 from this test.
Response line: active

Prompt line: I'd appreciate the recorded outcome for C[C@H]1CC2=CC(=O)CC[C@]2(C)[C@H]2CC[C@@]3(C)[C@@H](CC[C@]3(C)O)[C@H]12 from this test.
Response line: inactive

Prompt line: I'd appreciate the recorded outcome for O[C@H](CN1CC1)[C@@H](O)CN1CC1 from this test.
Response line: inactive

Prompt line: I'd appreciate the recorded outcome for O=c1[nH]cnc2nc(-c3ccc(N(CCCl)CCCl)cc3)[nH]c12 from this test.
Response line: inactive

Prompt line: I'd appreciate the recorded outcome for C[C@H]1CCC/C=C/[C@@H]2C[C@H](O)C[C@H]2[C@H](O)[C@@H](SC2OC(CO)C(O)C(O)C2O)CC(=O)O1 (stereo not given in full) from this test.
Response line: inactive

Prompt line: I'd appreciate the recorded outcome for S=C(Nc1ccccc1)N1CCn2c1nsc2=Nc1ccccc1 from this test.
Response line: inactive

Prompt line: I'd appreciate the recorded outcome for Cc1nc2sc(C(=O)Nc3cccc(Cl)c3C)c(N)c2cc1C(C)O (stereo not given) from this test.
Response line: inactive

Prompt line: I'd appreciate the recorded outcome for Cc1nn2c(/C=C3\C(=O)Nc4ccccc43)c(C)nc2s1 from this test.
Response line: inactive

----------
Could you please report measured GI50 for the items listed next?
# System: ACHN renal
# Measurement protocol: NCI tumour cell line growth inhibition, 48 h

Prompt line: What does the record list as GI50 for N#Cc1ccc2c(c1)C(=O)c1c-2n(CCCN=[N+]=[N-])c(=O)c2cc([N+](=O)[O-])ccc12 ?
Response line: 5.28 µM

Prompt line: What does the record list as GI50 for O=c1[nH]cnc2nc(-c3ccc(N(CCCl)CCCl)cc3)[nH]c12 ?
Response line: 2.58 µM

Prompt line: What does the record list as GI50 for COc1cc(CNC(=O)CCSc2nc3ccccc3c(=O)n2Cc2cc(OC)c(OC)c(OC)c2)cc(OC)c1OC ?
Response line: 8.09 µM

Prompt line: What does the record list as GI50 for N=C1C(c2nc(-c3ccc(Br)cc3)cs2)=C(O)CN1CC1CCCO1 (stereo not drawn) ?
Response line: > 100 µM

Prompt line: What does the record list as GI50 for CN(C)c1ccc(N=C(C#N)c2nc(N)nc(N3CCN(c4ccccc4)CC3)n2)cc1 ?
Response line: 22.3 µM

Prompt line: What does the record list as GI50 for CCN(CC)CCOc1nc2cc(OC)c(OC)cc2c2c1-c1ccc(OC)cc1C2=O ?
Response line: 11.5 µM

Prompt line: What does the record list as GI50 for C=C1C[C@@H]2[C@H](CC[C@]3(C)C(=O)CC[C@@H]23)[C@@]2(C)C=CC(=O)C=C12 ?
Response line: 23.5 µM

Prompt line: What does the record list as GI50 for S=C(Nc1ccccc1)N1CCn2c1nsc2=Nc1ccccc1 ?
Response line: 50.3 µM

----------
# System: OVCAR-8 ovarian
# Measurement protocol: NCI tumour cell line growth inhibition, 48 h; in the data active = GI50 below about 0.43 µM; inactive = the rest
Answer with one of the outcomes given here: label 1 for active, label 0 for inactive

Prompt line: I'd appreciate the recorded outcome for COc1ccc(S(=O)(=O)n2c3ccccc3n3ncc(-c4nnc(C)o4)c23)cc1 from this test.
Response line: label 0

Prompt line: I'd appreciate the recorded outcome for CS(=O)(=O)Nc1cc(-c2ccc3ncnc(Nc4cccc(Cl)c4F)c3c2)cnc1Cl from this test.
Response line: label 0

Prompt line: I'd appreciate the recorded outcome for C#CCOc1cccc(Nc2ncc3ncn(C4CCN(C(=O)CCl)C4)c3n2)c1 (centres undefined) from this test.
Response line: label 0

Prompt line: I'd appreciate the recorded outcome for C=C1C(=O)O[C@H]2[C@H]1CC/C(COC(=O)/C=C/c1c[nH]c3ccccc13)=C\CC[C@@]1(C)O[C@@H]21 from this test.
Response line: label 1

Prompt line: I'd appreciate the recorded outcome for O=C(c1ccccc1)c1ccccc1C(=O)c1ccccc1 from this test.
Response line: label 0

Prompt line: I'd appreciate the recorded outcome for CC[C@H](C)[C@H](NC(=O)c1nccn1C)C(=O)N(C)[C@H](C[C@@H](OC(C)=O)c1nc(C(=O)N[C@@H](Cc2ccccc2)C[C@H](C)C(=O)OC)cs1)C(C)C from this test.
Response line: label 0

Prompt line: I'd appreciate the recorded outcome for FC(F)(F)c1cc(NC2=NCCN=C(Nc3cc(C(F)(F)F)cc(C(F)(F)F)c3)SS2)cc(C(F)(F)F)c1 from this test.
Response line: label 0

Prompt line: I'd appreciate the recorded outcome for Cc1nn2c(/C=C3\C(=O)Nc4ccccc43)c(C)nc2s1 from this test.
Response line: label 0

Prompt line: I'd appreciate the recorded outcome for NC(=S)N/N=C\c1nccc2c(C(F)(F)C(F)(F)C(F)(F)F)cccc12 from this test.
Response line: label 1

----------
# System: K-562 leukemia
# Measurement protocol: NCI tumour cell line growth inhibition, 48 h
Parameter measured: TGI

Prompt line: Test system K-562 leukemia; read-out TGI; what value for O=C(O)c1ccc2cccnc2c1O ?
Response line: > 100 µM

Prompt line: Test system K-562 leukemia; read-out TGI; what value for N#Cc1c(C#N)c(-c2ccccc2)n(/N=C\c2ccccc2)c1N ?
Response line: > 100 µM

Prompt line: Test system K-562 leukemia; read-out TGI; what value for COc1ccc(C(C)NNC(=O)c2ccncc2)cc1F (stereo unspecified) ?
Response line: > 100 µM

Prompt line: Test system K-562 leukemia; read-out TGI; what value for Cc1ccc(S(=O)(=O)c2ccsc2N)cc1 ?
Response line: > 100 µM

Prompt line: Test system K-562 leukemia; read-out TGI; what value for COc1ccc(NS(=O)c2cccc(C)c2)cc1 (stereo unspecified) ?
Response line: > 100 µM

Prompt line: Test system K-562 leukemia; read-out TGI; what value for c1ccc(COc2cccc3cccnc23)cc1 ?
Response line: > 100 µM

Prompt line: Test system K-562 leukemia; read-out TGI; what value for C/C(=C\CNc1nc(Cl)nc2nc[nH]c12)CO ?
Response line: > 100 µM

Prompt line: Test system K-562 leukemia; read-out TGI; what value for COc1ccc(N2C(=O)/C(=C/c3ccc(N(CCC#N)CCC#N)cc3)N=C2c2ccccc2)c(OC)c1 ?
Response line: 87 µM

Prompt line: Test system K-562 leukemia; read-out TGI; what value for C=C1C(=O)O[C@H]2C3C(=C(C)CC[C@@H]12)C(=O)[C@@H]1OC31C (stereo partly specified) ?
Response line: 5.35 µM

Prompt line: Test system K-562 leukemia; read-out TGI; what value for COc1ccc(C2=NNC(=O)c3ccccc3N2c2nc(-c3cccs3)nc3ccc(Br)cc23)cc1 ?
Response line: > 100 µM

Prompt line: Test system K-562 leukemia; read-out TGI; what value for CC(=O)O[C@H](C[C@H](C(C)C)N(C)C(=O)[C@@H](NC(=O)[C@H]1CCCCN1C)C(C)(C)C)c1nc(C(=O)N[C@@H](Cc2ccccc2)C[C@H](C)C(=O)O)cs1 ?
Response line: > 25 µM

----------
# Test system: MDA-MB-435
# Measurement protocol: NCI tumour cell line growth inhibition, 48 h
Could you please report measured TGI for the items listed next?

Prompt line: Test system MDA-MB-435; read-out TGI; what value for Cc1ccc(S(=O)(=O)c2ccsc2N)cc1 ?
Response line: > 100 µM

Prompt line: Test system MDA-MB-435; read-out TGI; what value for O=c1oc2cc(OS(=O)(=O)c3ccccc3)ccc2c2c1CCCCC2 ?
Response line: > 100 µM

Prompt line: Test system MDA-MB-435; read-out TGI; what value for O=C(Nc1nc(C23CC4CC(CC(C4)C2)C3)cs1)c1cc2cc([N+](=O)[O-])ccc2oc1=O ?
Response line: > 100 µM

Prompt line: Test system MDA-MB-435; read-out TGI; what value for C/C(=C\c1ccccc1)C(=O)NCc1ccc(C(=O)NCCc2c[nH]c3ccccc23)cc1 ?
Response line: > 100 µM

Prompt line: Test system MDA-MB-435; read-out TGI; what value for Cc1ccc2c(=O)c(C(=O)N(CCO)CCO)c[nH]c2n1 ?
Response line: > 100 µM

Prompt line: Test system MDA-MB-435; read-out TGI; what value for O=c1[nH]cnc2nc(-c3ccc(N(CCCl)CCCl)cc3)[nH]c12 ?
Response line: > 100 µM

Prompt line: Test system MDA-MB-435; read-out TGI; what value for CCCNc1cccc(-n2ncc3c(N/N=C/c4ccncc4)ncnc32)c1 ?
Response line: > 25 µM

Prompt line: Test system MDA-MB-435; read-out TGI; what value for N#Cc1c(-c2ccc(Cl)cc2)cc(-c2nc3ccccc3[nH]2)nc1N ?
Response line: 18.8 µM

Prompt line: Test system MDA-MB-435; read-out TGI; what value for CC(C)c1nccn1Cc1ccc(Cl)cc1Cl ?
Response line: > 100 µM

Prompt line: Test system MDA-MB-435; read-out TGI; what value for C(#Cc1ccccc1C#Cc1ccccn1)c1ccccn1 ?
Response line: 22.5 µM

Prompt line: Test system MDA-MB-435; read-out TGI; what value for Cc1ccc(S(=O)(=O)N2CCN(CCO)CCN(S(=O)(=O)c3ccc(C)cc3)CCN(CCO)CC2)cc1 ?
Response line: 29.2 µM

Prompt line: Test system MDA-MB-435; read-out TGI; what value for Cc1[nH]n(-c2ccccc2)c(=O)c1C(=O)c1ccccc1 ?
Response line: > 25 µM

Prompt line: Test system MDA-MB-435; read-out TGI; what value for COC1=CC(=O)c2c(cc(COP(=O)(N(C)CCBr)N(C)CCBr)n2C)C1=O ?
Response line: 2.35 µM

Prompt line: Test system MDA-MB-435; read-out TGI; what value for N#Cc1ncc(N2C(=O)C3(CCC3)N(c3ccc(OC4CCNCC4)nc3)C2=S)cc1C(F)(F)F ?
Response line: 31.3 µM

Prompt line: Test system MDA-MB-435; read-out TGI; what value for CC(C)=CCC/C(C)=C/[C@H]1OC(=O)CC12C[C@H](O)C=CC2=O (stereo partly specified) ?
Response line: 1.64 µM

Prompt line: Test system MDA-MB-435; read-out TGI; what value for Cn1c(O)c(N=NC(N)=S)c2ccccc21 ?
Response line: > 100 µM

Prompt line: Test system MDA-MB-435; read-out TGI; what value for S=C(Nc1ccc2c(c1)Cc1ccccc1-2)Nc1ccc2c(c1)Cc1ccccc1-2 ?
Response line: > 100 µM

Prompt line: Test system MDA-MB-435; read-out TGI; what value for CC[C@H](C)[C@H](NC(=O)c1nccn1C)C(=O)N(C)[C@H](C[C@@H](OC(C)=O)c1nc(C(=O)N[C@@H](Cc2ccccc2)C[C@H](C)C(=O)OC)cs1)C(C)C ?
Response line: 0.428 µM

Prompt line: Test system MDA-MB-435; read-out TGI; what value for COc1ccc(/C=C/c2cnc3ccccc3n2)cc1OC ?
Response line: > 100 µM

Prompt line: Test system MDA-MB-435; read-out TGI; what value for N#Cc1c(NCc2ccccc2)nc(NCc2ccccc2)c(C#N)c1-c1cccc(O)c1 ?
Response line: 9.97 µM

Prompt line: Test system MDA-MB-435; read-out TGI; what value for COc1ccc(C2=NNC(=O)c3ccccc3N2c2nc(-c3cccs3)nc3ccc(Br)cc23)cc1 ?
Response line: > 100 µM

Prompt line: Test system MDA-MB-435; read-out TGI; what value for O=c1oc2ccccc2c(O)c1Cc1cccc(Cc2c(O)c3ccccc3oc2=O)c1 ?
Response line: > 100 µM

Prompt line: Test system MDA-MB-435; read-out TGI; what value for COc1cccc2ccc3c(c12)C(=O)OC31CCc2c(C)cccc21 (stereo unspecified) ?
Response line: > 100 µM

Prompt line: Test system MDA-MB-435; read-out TGI; what value for Nc1ccc(-c2nc3ccccc3s2)cc1 ?
Response line: 32.1 µM

Prompt line: Test system MDA-MB-435; read-out TGI; what value for COc1ccc(N2C(=O)/C(=C/c3ccc(N(CCC#N)CCC#N)cc3)N=C2c2ccccc2)c(OC)c1 ?
Response line: > 100 µM

Prompt line: Test system MDA-MB-435; read-out TGI; what value for O=S(=O)(O)c1ccc(Nc2ccnc3cc(Cl)ccc23)cc1 ?
Response line: > 100 µM

Prompt line: Test system MDA-MB-435; read-out TGI; what value for CC(=O)Nc1cc2cc(NS(=O)(=O)c3cc(C(F)(F)F)cc(C(F)(F)F)c3)ccc2oc1=O ?
Response line: > 100 µM

Prompt line: Test system MDA-MB-435; read-out TGI; what value for CCOC(=O)c1cc(-c2ccn(C(C)=O)c2)c(-c2cc(C)co2)[nH]1 ?
Response line: > 100 µM

Prompt line: Test system MDA-MB-435; read-out TGI; what value for O[C@H](CN1CC1)[C@@H](O)CN1CC1 ?
Response line: 29.8 µM

Prompt line: Test system MDA-MB-435; read-out TGI; what value for Cc1nnc(CC#N)n1NC(=O)CC#N ?
Response line: > 100 µM

Prompt line: Test system MDA-MB-435; read-out TGI; what value for CC(=O)NS(=O)(=O)c1ccc(-n2nc(-c3ccccc3)cc2C2=CC(=O)C=CC2=O)cc1 ?
Response line: > 100 µM

Prompt line: Test system MDA-MB-435; read-out TGI; what value for CCCCCCCCC[n+]1cccc(C2C(C(=O)OCC)=C(C)NC(C)=C2C(=O)OCC)c1 ?
Response line: 4.48 µM

Prompt line: Test system MDA-MB-435; read-out TGI; what value for CCN(CC)CCOc1nc2cc(OC)c(OC)cc2c2c1-c1ccc(OC)cc1C2=O ?
Response line: 26 µM

Prompt line: Test system MDA-MB-435; read-out TGI; what value for C=C1C(=O)O[C@H]2[C@H]1CC/C(COC(=O)/C=C/c1c[nH]c3ccccc13)=C\CC[C@@]1(C)O[C@@H]21 ?
Response line: 0.582 µM

Prompt line: Test system MDA-MB-435; read-out TGI; what value for CC1(C)N=C(N)N=C(N)N1c1ccc(OCCCCNC(=O)c2ccc(S(=O)(=O)F)cc2)c(Cl)c1 ?
Response line: > 100 µM

Prompt line: Test system MDA-MB-435; read-out TGI; what value for S=C(Nc1ccccc1)N1CCn2c1nsc2=Nc1ccccc1 ?
Response line: > 100 µM
